Provenance of the data: patent US20260167959A1

- Tested on: Renilla luciferase RNA
- procedure summary: Barcoded aptazyme variant library screen: un-cleaved Renilla luciferase RNA by barcode read counts, HEK293-T cells
- Format: cell-based
- test settings: un-cleaved Renilla luciferase RNA by barcode read counts; with 1 mM theophylline (ON) over without theophylline (OFF); HEK293-T cells; triplicate
- From the text: Based on the findings from Example 1, an aptazyme variant library was generated from the T3H48 ribozyme with one of seven variant theophylline aptamers inserted sequentially after each nucleotide of the DNA sequence encoding the T3H48 ribozyme sequence. […] The seven variant theophylline aptamers vary in their communication channels, which are the ribonucleotides of the aptamer that attach to the ribozyme sequence (see, Table 2). […]
observable: Fold change in RNA expression between the ON state and the OFF state
Please give the numeric answer without any surrounding text.

{"columns": ["molecule", "result number"],
 "data": [
  ["RA458 (nucleic acid, expressed or natural sequence) DNA: GCGCGTCCTGGATTCGCGGAAACGCGTACATCCAGCTGACGAGTCCCAAATAGGACGAACCGGAATACCAGCATCGTCTTGATGCCCTTGGAAGTCCGGACGCGC", 0.5]
]}

Let's switch to this molecule now.
May I ask what Fold change in RNA expression between the ON state and the OFF state has been recorded for RA476 (nucleic acid, expressed or natural sequence) DNA: GCGCGTCCTGGATTCGCGGAAACGCGTACATCCAGCTGACGAGTCCCAAATAGGACGAAAAGAATACCAGCATCGTCTTGATGCCCTTGGAAGTCTCGCGC ?
0.2
